log10(microsomal CLint) reference
Test details: Metabolic stability in human liver microsomes (HLM)
Condition label: human, HLM CLint, n = 1 or average of n = 2-3
Observation type: log10(microsomal CLint) (log10 of the value in µL/min/mg)

compound="Cc1nc(C)c(-c2ccc3nccc(C(=O)NCC(=O)N4CSC[C@H]4C#N)c3c2)o1 [Example 215]" readout_value=0.90
compound="C[C@@H]1CN(c2ccc3nccc(C(=O)NCC(=O)N4CSC[C@H]4C#N)c3c2)C[C@H]1C (single isomer, unassigned) [Example 225]" readout_value=2.04
compound="C[C@H]1COC[C@H](C)N1c1ccc2nccc(C(=O)NCC(=O)N3CSC[C@H]3C#N)c2c1 [Example 103]" readout_value=1.73
compound="N#C[C@@H]1CSCN1C(=O)CNC(=O)c1ccnc2ccc(-c3ccnn3[C@H]3CCCCO3)cc12 (mixture of isomers) [Example 176]" readout_value=1.96
compound="N#C[C@@H]1CSCN1C(=O)CNC(=O)c1ccnc2ccc(N3CCO[C@H](C(F)(F)F)C3)cc12 [Example 74]" readout_value=1.45
compound="CCC1(OC)CCN(c2ccc3nccc(C(=O)NCC(=O)N4CSC[C@H]4C#N)c3c2)CC1 [Example 191]" readout_value=1.97

###

For human Fibroblast activation protein alpha (hFAP) (Homo sapiens (Human)), measured pIC50 is reported for the entries below.
pIC50: −log10 of the molar value.
Observation type: pIC50

compound=N#C[C@@H]1CSCN1C(=O)CNC(=O)c1ccnc2ccc(-c3ccnc(F)c3)cc12 readout_value=10.26
compound=CC1(C)CCN1c1ccc2nccc(C(=O)NCC(=O)N3CSC[C@H]3C#N)c2c1 readout_value=9.37
compound="C[C@H]1N(c2ccc3nccc(C(=O)NCC(=O)N4CSC[C@H]4C#N)c3c2)CC1(F)F (mixture of isomers)" readout_value=10.14

###

Test details: Metabolic stability in human liver microsomes (HLM)
Condition label: human, HLM CLint, n = 1 or average of n = 2-3
Observation type: microsomal CLint

structure_smiles=CC(=O)N1CC2(C1)CN(c1ccc3nccc(C(=O)NCC(=O)N4CSC[C@H]4C#N)c3c1)C2 observation_type="microsomal CLint" readout_value="< 3 µL/min/mg"
structure_smiles=CC1(O)CCN(c2ccc3nccc(C(=O)NCC(=O)N4CSC[C@H]4C#N)c3c2)CC1 observation_type="microsomal CLint" readout_value="< 3 µL/min/mg"
structure_smiles=CO[C@@H]1CN(c2ccc3nccc(C(=O)NCC(=O)N4CSC[C@H]4C#N)c3c2)[C@H]1C observation_type="microsomal CLint" readout_value="< 3 µL/min/mg"
structure_smiles=COC[C@@H]1CN(c2ccc3nccc(C(=O)NCC(=O)N4CSC[C@H]4C#N)c3c2)CCO1 observation_type="microsomal CLint" readout_value="< 3 µL/min/mg"
structure_smiles=N#C[C@@H]1CSCN1C(=O)CNC(=O)c1ccnc2ccc(N3CC(C(F)F)C3)cc12 observation_type="microsomal CLint" readout_value="< 3 µL/min/mg"
structure_smiles=N#C[C@@H]1CSCN1C(=O)CNC(=O)c1ccnc2ccc(N3CCCCO3)cc12 observation_type="microsomal CLint" readout_value="14 µL/min/mg"
structure_smiles=N#C[C@@H]1CSCN1C(=O)CNC(=O)c1ccnc2ccc(N3CCSCC3)cc12 observation_type="microsomal CLint" readout_value="75 µL/min/mg"
structure_smiles=CC1(C)CCc2cn(-c3ccc4nccc(C(=O)NCC(=O)N5CSC[C@H]5C#N)c4c3)nc21 observation_type="microsomal CLint" readout_value="170 µL/min/mg"
